system: SF-539 CNS; experiment: NCI-60 one-dose screen, 48 h (100 = growth as untreated, 0 = no growth, -100 = all killed); details: 10 µM unless noted
This is part of a sample that, as a whole, favours compounds with a hit. Of some 83,000 tested, about 20% had one in any assay.
Let's look at some compounds and their measured growth.

# Compound, growth / %
data = [
    ("CCOc1ccc2nc(-c3cccc(OCC(=O)NC(C)C)c3)nc(Nc3ccc(-c4cn[nH]c4)cc3)c2c1", -79.6),
    ("O=C(/C=C/C12c3ccccc3C(c3ccccc31)C1C(=O)NC(=O)C12)c1ccccc1 (stereo unspecified)", 18.5),
    ("C=CC(=O)N[C@@H](Cc1ccc(-c2cc(Cl)cc(Cl)c2)cc1)[C@@H](O)[C@H](O)C(=O)O", 94.9),
    ("O=C1C(Cl)C(c2ccccc2Cl)N1n1cnnc1 (stereo unspecified)", 85.3),
    ("CN1CCN(C(=O)[C@]23CCC(C)(C)C[C@@H]2C2=CC[C@@H]4[C@@]5(C)Cc6c([nH]c7ccccc67)C(C)(C)[C@@H]5CC[C@@]4(C)[C@]2(C)CC3)CC1", 76.7),
    ("Cc1nc(Nc2ccccn2)sc1C(=O)/C=C/c1ccc(Br)cc1", 84.7),
]
